Source of measurements: ChEMBL document CHEMBL1153784

# Assay Remarks: Safety index, ratio of IC50 for rat H9c2 cells to IC50 for Entamoeba histolytica HM1:IMSS trophozoites
# Assay type: toxicity, cell-based
# Condition Description: read-out: Ratio IC50
Value Kind: selectivity ratio
I only need the number, thanks.

>>> reported("Clc1ccccc1C1ON=C(c2ccc(C3=NOC(c4ccccc4Cl)O3)cc2)O1 (stereo not given)")
27.9
>>> reported("Clc1cccc(C2ON=C(c3ccc(C4=NOC(c5cccc(Cl)c5)O4)cc3)O2)c1 (stereo not given)")
5.67

Looking for the measured selectivity ratio of Cc1ccc(C2ON=C(c3ccc(C4=NOC(c5ccc(C)cc5)O4)cc3)O2)cc1 (stereo not given) , can you help?
46.7

---

# Assay Remarks: Toxicity in rat H9c2 cells assessed as cell viability at 12.5 ug/ml after 48 hrs by MTT assay
# Assay type: cell-based
# Condition Description: read-out: Activity
Recorded viability at 48 h, 12.5 ug/ml for the following molecules
Express it in %; write the number only.

>>> reported("Clc1ccccc1C1ON=C(c2ccc(C3=NOC(c4ccccc4Cl)O3)cc2)O1 (centres undefined)")
96.2
>>> reported("Clc1cccc(C2ON=C(c3ccc(C4=NOC(c5cccc(Cl)c5)O4)cc3)O2)c1 (centres undefined)")
83.5

// viability at 48 h, 12.5 ug/ml lookup, key: COc1ccc(C2ON=C(c3ccc(C4=NOC(c5ccc(OC)cc5)O4)cc3)O2)cc1 (centres undefined)
89

Record: Cc1ccc(C2ON=C(c3ccc(C4=NOC(c5ccc(C)cc5)O4)cc3)O2)cc1 (centres undefined)
82

---

# Assay Remarks: Toxicity in rat H9c2 cells after 48 hrs by MTT assay
# Format: cell-based
Reported values of IC50 at 48 h for individual entries

Example entries and their recorded answers appear below.
>>> reported("Clc1ccccc1C1ON=C(c2ccc(C3=NOC(c4ccccc4Cl)O3)cc2)O1 (stereo not given)")
"34 µM"
>>> reported("Clc1cccc(C2ON=C(c3ccc(C4=NOC(c5cccc(Cl)c5)O4)cc3)O2)c1 (stereo not given)")
"8 µM"
>>> reported("Cc1ccc(C2ON=C(c3ccc(C4=NOC(c5ccc(C)cc5)O4)cc3)O2)cc1 (stereo not given)")
"49 µM"

Query: IC50 at 48 h; subject: COc1ccc(C2ON=C(c3ccc(C4=NOC(c5ccc(OC)cc5)O4)cc3)O2)cc1 (stereo not given)
> 17 µM

What about Cc1ncc([N+](=O)[O-])n1CCO [METRONIDAZOLE] ?
> 116 µM
